System: TK-10
EXPERIMENT: NCI tumour cell line growth inhibition, 48 h
Activity calls are given as the source filed them. Cut-off read from the data, not from the text of the source: active = GI50 up to about 1.1 µM and inactive = higher. *1 amine or outer side, *2 acyl side, *3 side chain or, on linkers, in order; H or OH if unused. Where a SMILES comes first, the peptide text is derived from it. Bridges are numbered along the chain shown (N, C = ends). Roman numbers before positions name the chains, in order. [ ]: non-standard residue; d: D form. Actinocin(9to1) = Cc1c2oc3c(C)ccc(C(=O)[*:1])c3nc-2c(C(=O)[*:2])c(N)c1=O; NMeV = CN[CH](C(=O)O)C(C)C; Sar = CNCC(=O)O
Answer with one of the outcomes given here: t for active, f for inactive

molecule=Cc1cccc2c1CC1(Cc3c(C)cccc3C1=O)C2=O assigned_category=f
molecule="Cc1c2oc3c(C)ccc(C(=O)NC4C(=O)NC(C(C)C)C(=O)N5CCCC5C(=O)N(C)CC(=O)N(C)C(C(C)C)C(=O)OC4C)c3nc-2c(C(=O)NC2C(=O)NC(C(C)C)C(=O)N3CCCC3C(=O)N(C)CC(=O)N(C)C(C(C)C)C(=O)OC2C)c(N)c1=O (configuration not stated) (I: TVP[Sar][NMeV] / II: TVP[Sar][NMeV]; ester I:1-I:C, II:1-II:C; linker I:N-II:N via Actinocin(9to1); configuration not given here)" assigned_category=t
molecule=Cc1cc2c3c(nc4ccccc42)C(=O)c2ccccc2-c3n1 assigned_category=f
molecule=N#CCc1c(F)c(F)c(F)c(F)c1F assigned_category=f
molecule=Cc1ccc(Nc2[nH]c(=O)[nH]c(=O)c2C)cc1Cl assigned_category=f

So what was the verdict on `CC12c3c4cc(Br)cc3Oc3cc(Br)cc(c31)Oc1cc(Br)cc(c12)O4` in this test?
f

So what was the verdict on Cc1cc(Cl)ccc1NC(=O)C1C(=O)N(c2ccc(Cl)cc2C)C(=O)/C1=N\NC(N)=S (configuration not stated) in this test?
f

----------
Test system: NCI/ADR-RES
EXPERIMENT: NCI tumour cell line growth inhibition, 48 h
Activity calls are given as the source filed them. No stated cut-off is given here; in the data, active = GI50 up to about 1.1 µM and inactive = higher.
In this section, each of the compounds is paired with its reported GI50.

compound=O=C1c2ccccc2C(=O)N1n1c(Cc2ccc(Cl)cc2)n[nH]c1=O result="> 100 µM (inactive)"
compound="OCCNc1ncnc2c1ncn2C1OC(CO)C(O)C1O (stereo unspecified)" result="50.6 µM (inactive)"
compound="N#C[BH2-][n+]1cn(C2CC(O)C(COP(=O)(O)OC3CC(n4c[n+]([BH2-]C#N)c5c(=O)[nH]c(N)nc54)OC3CO)O2)c2nc(N)[nH]c(=O)c21 (stereo unspecified)" result="> 100 µM (inactive)"
compound=Cc1ccc(Nc2c(C#N)[n+]([O-])c3cc(Cl)ccc3[n+]2[O-])cc1 result="9.95 µM (inactive)"
compound=O=c1[nH]nc(-c2ccccc2)n1/N=C/c1ccncc1 result="> 100 µM (inactive)"
compound=C[C@@](Br)(C(=O)O)[C@H](Br)C(=O)O result="> 100 µM (inactive)"

What value of GI50 has been reported for the following compound? CC(=O)n1cc(C2CC23N=C(c2ccccc2)OC3=O)c2ccccc21 (stereo unspecified)
18.2 µM (inactive)

What value of GI50 has been reported for the following compound? `COCc1nc2c(OC)c(-c3nc4ccc(N5CCN(C)CC5)cc4[nH]3)cc(OC)c2[nH]1`
> 100 µM (inactive)
